Reported HEK-Blue, IL-36α, IC50 (IgG) values for a set of binders
Molecular target: T1, human IL1RAP (hu-IL1RAP) on human cells (human, UniProt Q9NPH3 21-570)
T1 sequence: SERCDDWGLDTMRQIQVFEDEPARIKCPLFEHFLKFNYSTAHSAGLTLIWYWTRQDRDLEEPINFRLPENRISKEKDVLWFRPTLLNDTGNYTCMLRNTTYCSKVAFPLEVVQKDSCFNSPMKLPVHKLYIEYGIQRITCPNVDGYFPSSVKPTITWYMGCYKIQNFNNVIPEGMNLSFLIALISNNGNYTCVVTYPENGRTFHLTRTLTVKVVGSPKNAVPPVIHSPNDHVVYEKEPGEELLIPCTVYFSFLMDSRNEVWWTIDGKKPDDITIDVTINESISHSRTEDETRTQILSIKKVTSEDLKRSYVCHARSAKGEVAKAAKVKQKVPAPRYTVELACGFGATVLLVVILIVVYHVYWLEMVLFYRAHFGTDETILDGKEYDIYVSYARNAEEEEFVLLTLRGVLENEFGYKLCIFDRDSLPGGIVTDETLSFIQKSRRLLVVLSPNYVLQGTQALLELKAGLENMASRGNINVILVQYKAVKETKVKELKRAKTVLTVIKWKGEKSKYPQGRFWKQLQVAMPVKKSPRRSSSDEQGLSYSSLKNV
Test: cell-based or functional assay
measurementLabel: HEK-Blue, IL-36α, IC50 (IgG) (pM)

- binder: "h11C5 variant K17/H3 IgG (YKS) (antibody, V domains shown, Human IgG1 N297G; also called 11C5-YKS) VH: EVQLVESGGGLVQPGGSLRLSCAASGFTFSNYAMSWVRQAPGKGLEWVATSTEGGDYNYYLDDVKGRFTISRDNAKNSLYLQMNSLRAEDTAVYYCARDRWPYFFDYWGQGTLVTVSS VL: DIQMTQSPSSLSASVGDRVTITCRASENIYSNLAWYQQKPGKSPKLLVYGYKNLADGVPSRFSGSGSGTDYTLTISSLQPEDFATYYCQHFKTTPRTFGGGTKVEIKR"
  measured: 418
- binder: "K13 IgG (VL-A51Y/W92I) (antibody, V domains shown) VH: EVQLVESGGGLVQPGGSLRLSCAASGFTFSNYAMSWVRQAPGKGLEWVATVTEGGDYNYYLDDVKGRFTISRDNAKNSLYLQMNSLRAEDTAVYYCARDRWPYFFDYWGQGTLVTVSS VL: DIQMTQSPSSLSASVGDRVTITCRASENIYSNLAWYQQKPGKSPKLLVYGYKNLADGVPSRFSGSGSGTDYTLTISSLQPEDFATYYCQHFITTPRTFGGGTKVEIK"
  measured: 303
- binder: "K10/H2 IgG (VL-A51Y, VH-R96D) (antibody, V domains shown) VH: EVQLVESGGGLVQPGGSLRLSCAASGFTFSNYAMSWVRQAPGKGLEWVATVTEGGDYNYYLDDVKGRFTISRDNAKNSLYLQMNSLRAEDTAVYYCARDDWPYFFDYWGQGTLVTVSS VL: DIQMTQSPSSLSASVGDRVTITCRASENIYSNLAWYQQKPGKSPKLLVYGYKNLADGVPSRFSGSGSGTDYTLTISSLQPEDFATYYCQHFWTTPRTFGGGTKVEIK"
  measured: 340
- binder: "K17 IgG (VL-A51Y/W92K) (antibody, V domains shown) VH: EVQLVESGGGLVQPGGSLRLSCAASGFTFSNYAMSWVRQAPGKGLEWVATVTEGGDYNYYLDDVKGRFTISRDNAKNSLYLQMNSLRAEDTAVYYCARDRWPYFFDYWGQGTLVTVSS VL: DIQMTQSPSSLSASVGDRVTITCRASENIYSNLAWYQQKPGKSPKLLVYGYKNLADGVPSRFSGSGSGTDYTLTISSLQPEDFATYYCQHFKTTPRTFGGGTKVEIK"
  measured: 495
- binder: "K10 IgG (VL-A51Y) (antibody, V domains shown) VH: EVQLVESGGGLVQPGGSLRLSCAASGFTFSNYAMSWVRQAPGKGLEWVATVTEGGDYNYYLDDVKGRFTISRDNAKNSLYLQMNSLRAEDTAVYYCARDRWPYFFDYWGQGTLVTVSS VL: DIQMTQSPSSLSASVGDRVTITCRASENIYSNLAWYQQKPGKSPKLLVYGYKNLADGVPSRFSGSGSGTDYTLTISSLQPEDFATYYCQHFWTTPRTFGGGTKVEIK"
  measured: 247
